System: pCHK1 (S345) in Colo320 DM cells
experiment: CHK1 cellular activity (phospho-CHK1 AlphaLisa)
Assay type: cell-based, human
run-conditions: compound overnight (approximately 16 hours)
Experimental: Phospho-CHK1 cellular activity was measured as a marker of replication stress which is a consequence of RNR inhibition. Colo320 DM cells (ATCC #CCL-220, derived from human colorectal adenocarcinoma, Dukes' type C) were seeded on a 96-well cell culture treated assay plate at a density of 50,000 cells/well in 200 μL of RPMI-1640 media supplemented with 10% Fetal Bovine Serum and incubated at 37 degrees Celsius overnight. […]
pIC50: −log10 of the molar value.
Recorded measurements of pIC50, one per entry

>>> print(df.to_string())
                                   compound                            target  observed_measurement
0  Cc1ccc(F)c([C@@H](C)[C@H](NS(=O)(=O)c2ccc(Cl)c3c2OCC[C@@]3(C)O)c2nn[nH]n2)c1C [Example 7]  pCHK1 (S345) in Colo320 DM cells          4.30 to 4.52

Next compound, please.
*Q* Identify the reported pIC50 for the following entry. Cc1ccc(F)c([C@@H](C)[C@H](NS(=O)(=O)c2ccc(Cl)c3c2OCC[C@@]3(C)O)c2nn[nH]n2)c1C (single isomer, unassigned) [Example 4]
*A* 4.52 to 5.00

====

This listing pairs compounds with measured pIC50.
target: RNR (RNR1:RNR2) (Homo sapiens (Human), UniProt P23921+P31350)
Sequence (P23921 whole entry): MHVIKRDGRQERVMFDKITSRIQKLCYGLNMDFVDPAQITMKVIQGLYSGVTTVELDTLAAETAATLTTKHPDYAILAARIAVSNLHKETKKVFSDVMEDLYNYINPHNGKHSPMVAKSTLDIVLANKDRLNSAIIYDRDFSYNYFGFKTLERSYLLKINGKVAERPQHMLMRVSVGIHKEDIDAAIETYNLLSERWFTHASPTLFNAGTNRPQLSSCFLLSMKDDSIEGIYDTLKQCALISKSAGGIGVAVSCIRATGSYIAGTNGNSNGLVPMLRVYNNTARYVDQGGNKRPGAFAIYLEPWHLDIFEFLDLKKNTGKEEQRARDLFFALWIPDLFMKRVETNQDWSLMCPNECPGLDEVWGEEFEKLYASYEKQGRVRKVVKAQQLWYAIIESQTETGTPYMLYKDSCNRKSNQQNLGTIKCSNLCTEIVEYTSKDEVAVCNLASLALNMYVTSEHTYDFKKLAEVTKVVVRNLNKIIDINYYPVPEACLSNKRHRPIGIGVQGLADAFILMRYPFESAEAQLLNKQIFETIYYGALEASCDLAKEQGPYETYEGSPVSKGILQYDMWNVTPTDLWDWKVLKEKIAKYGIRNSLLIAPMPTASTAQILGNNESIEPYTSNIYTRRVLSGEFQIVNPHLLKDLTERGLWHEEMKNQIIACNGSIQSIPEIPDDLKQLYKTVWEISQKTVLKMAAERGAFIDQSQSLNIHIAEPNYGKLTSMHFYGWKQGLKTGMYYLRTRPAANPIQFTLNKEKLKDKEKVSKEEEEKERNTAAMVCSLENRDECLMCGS
Sequence (P31350 whole entry): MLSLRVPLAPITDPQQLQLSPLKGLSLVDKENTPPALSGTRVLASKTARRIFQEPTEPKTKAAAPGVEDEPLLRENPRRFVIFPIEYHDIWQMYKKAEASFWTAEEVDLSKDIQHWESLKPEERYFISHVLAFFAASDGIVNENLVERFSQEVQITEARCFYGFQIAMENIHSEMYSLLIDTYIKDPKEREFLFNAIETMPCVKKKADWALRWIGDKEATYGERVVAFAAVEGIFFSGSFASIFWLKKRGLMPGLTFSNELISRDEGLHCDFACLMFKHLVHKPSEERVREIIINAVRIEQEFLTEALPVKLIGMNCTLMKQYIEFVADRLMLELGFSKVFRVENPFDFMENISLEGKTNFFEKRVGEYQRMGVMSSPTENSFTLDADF
experiment: RNR enzyme activity, rapid-fire mass spectrometry (RFMS) assay
run-conditions: [RNR] 50 nM, 1:1 RNR1:RNR2, [CDP] 5 μM, [ATP] 1 mM, 37° C., 45 min
pIC50: −log10 of the molar value.

As a guide, the following entries are already answered.
>>> df
                                   compound                                    target  observed_measurement
0  CNC(=O)c1cc(Cl)ccc1S(=O)(=O)N[C@H](c1nn[nH]n1)[C@H](C)c1c(F)ccc(C)c1C [Example 76]  RNR (RNR1:RNR2) (Homo sapiens (Human), UniProt P23921+P31350)          6.00 to 7.00
1  [2H]C([2H])([2H])[C@@]1(O)CCOc2c(S(=O)(=O)N[C@H](c3nn[nH]n3)[C@H](C)c3c(F)ccc(C)c3C)ccc(Cl)c21 [Example 12]  RNR (RNR1:RNR2) (Homo sapiens (Human), UniProt P23921+P31350)                ≥ 7.00
2  Cc1ccc(F)c([C@@H](C)[C@H](NS(=O)(=O)c2ncc(Br)cc2C(N)=O)c2nn[nH]n2)c1C (racemic) [Example 15]  RNR (RNR1:RNR2) (Homo sapiens (Human), UniProt P23921+P31350)                ≥ 7.00

Kindly consider the entry below.
*Q* Please supply the value of reported pIC50 for the item Cc1ccc(F)c([C@@H](C)[C@H](NS(=O)(=O)c2ccc(Cl)c3c2OCC[C@@]3(C)O)c2nn[nH]n2)c1C [Example 7]
*A* ≥ 7.00

====

target: RNR (RNR1:RNR2) (Homo sapiens (Human), UniProt P23921+P31350)
experiment: RNR enzyme activity, rapid-fire mass spectrometry (RFMS) assay
run-conditions: [RNR] 50 nM, 1:1 RNR1:RNR2, [CDP] 5 μM, [ATP] 1 mM, 37° C., 45 min
quantity-kind: IC50

>>> print(df.to_string())
                                   compound                                    target  observed_measurement
0  COc1cc(Cl)ccc1S(=O)(=O)N[C@H](c1nn[nH]n1)[C@H](C)c1c(F)ccc(C)c1C [Example 1]  RNR (RNR1:RNR2) (Homo sapiens (Human), UniProt P23921+P31350)              ≤ 100 nM
1  Cc1ccc(F)c([C@@H](C)[C@H](NS(=O)(=O)c2cc(Cl)ccc2F)c2nn[nH]n2)c1C [Example 44]  RNR (RNR1:RNR2) (Homo sapiens (Human), UniProt P23921+P31350)       1000 to 5000 nM

*Q* Look up and report measured IC50 for this entry: Cc1ccc(F)c([C@@H](C)[C@H](NS(=O)(=O)c2c(F)cc(Cl)cc2F)c2nn[nH]n2)c1C [Example 56]
*A* 100 to 1000 nM

*Q* For the compound Cc1ccc(F)c([C@@H](C)[C@H](NS(=O)(=O)c2ccc(Cl)c3c2OCC[C@@H]3O)c2nn[nH]n2)c1C [Example 10] , give its reported IC50.
*A* ≤ 100 nM

*Q* Annotate the compound COC(=O)Cc1cc(Cl)ccc1S(=O)(=O)N[C@H](c1nn[nH]n1)[C@H](C)c1c(F)ccc(C)c1C (racemic) [Example 14] with its measured IC50.
*A* 100 to 1000 nM

*Q* Identify measured IC50 corresponding to Cc1cc(S(=O)(=O)N[C@H](c2nn[nH]n2)[C@H](C)c2c(F)ccc(C)c2C)ccc1Cl [Example 48]
*A* 100 to 1000 nM

*Q* Using the record for Cc1ccc(F)c([C@@H](C)[C@H](NS(=O)(=O)c2ccc(Cl)cc2CC(=O)O)c2nn[nH]n2)c1C [Example 18] , state its measured IC50.
*A* ≤ 100 nM

*Q* Annotate the compound Cc1ccc(F)c([C@@H](C)[C@H](NS(=O)(=O)c2ccc(Cl)c3c2OCCN3C)c2nn[nH]n2)c1C [Example 29] with its measured IC50.
*A* ≤ 100 nM

*Q* Give the value of IC50 reported for the following: Cc1ccc(F)c([C@@H](C)[C@H](NS(=O)(=O)c2cn(C)nc2C)c2nn[nH]n2)c1C [Example 43]
*A* 1000 to 5000 nM

*Q* Quickly give me recorded IC50 for Cc1ccc(F)c([C@@H](C)[C@H](NS(=O)(=O)c2ccc(Cl)cc2C#N)c2nn[nH]n2)c1C [Example 5]
*A* 100 to 1000 nM

*Q* Assign IC50 to the following record: Cc1ccc(F)c([C@@H](C)[C@H](NS(=O)(=O)c2ccc(C#N)cc2OC(F)F)c2nn[nH]n2)c1C (racemic) [Example 69]
*A* 100 to 1000 nM

*Q* Consider the compound Cc1ccc(F)c([C@@H](C)[C@H](NS(=O)(=O)c2ccc(Cl)c(C)c2Cl)c2nn[nH]n2)c1C [Example 55] and give its recorded IC50.
*A* ≤ 100 nM

*Q* Report measured IC50; entry is COc1c(S(=O)(=O)N[C@H](c2nn[nH]n2)[C@H](C)c2c(F)ccc(C)c2C)ccc(Cl)c1F [Example 73]
*A* 100 to 1000 nM

*Q* Tell me measured IC50 for Cc1ccc(F)c([C@@H](C)[C@H](NS(=O)(=O)c2ccc(Cl)cc2CC(=O)N2CCOCC2)c2nn[nH]n2)c1C [Example 26] please.
*A* 100 to 1000 nM

*Q* Provide measured IC50 value, entry: Cc1ccc(F)c([C@@H](C)[C@H](NS(=O)(=O)c2cc(C(C)(C)O)c(Cl)cc2C(N)=O)c2nn[nH]n2)c1C (racemic) [Example 13]
*A* ≤ 100 nM
